B1: ZNF263 (parent)
chain: EKPYKCPECGEIFAHSSNLLRHQR

- Variants of: B1
- Assay Info: protein stability index of a GFP-peptide fusion (GPS, HEK-293T) (PSI 1-6); higher = more stable;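 note: lentivirally expressed fusions sorted by FACS into six bins by GFP to DsRed ratio, PSI derived from sequencing read proportions per bin multiplied by bin number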
- Assay Setup: c terminus: a fixed tail appended
Kindly supply the reported protein stability index values for the records listed here.
Answer field: number only, no words.

What does the data say about its protein stability index? Entry: A14S
2.38

Record: N18S
4.02

Record: K2T
3.05

Record: I12Q
3.23

Record: N18V
4.54

Record: E1I
2.33

Record: E8A
2.51

Record: I12N
1.83

Record: A14G
3.09

Record: C9S
3.72

Record: S17V
2.08

Record: S17Y
2.47

Record: C9Q
4.07

Record: F13R
3.24

Record: R24K
3.25

Record: A14R
2.57

Record: K5D
2.24

Record: H22L
1.91

Record: R21K
3.51

Record: P3S
2.09

Record: L20R
2.59

Record: S17L
2.79

Record: S16Q
2.45

Record: K2V
3

Record: F13H
4.03

Record: S16V
2.83

Record: H22N
2.35
